Test system: NCI-H23 complex spheroids with HUVEC/MSC, viability
test.protocol: Anticancer human tumor NCI-H23 cell line growth inhibition [RAS];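 also: spheroids exposed to compound for 7 days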
assay.setup: second compound 0.0316 µM; first compound 0.0316 µM; active compounds read low
Cut-off 40% on viability, T/C: below means T, at or above means F.

compound | study.system | assigned.class
C=CC(=O)Nc1cc(Nc2nccc(-c3cn(C)c4ccccc34)n2)c(OC)cc1N(C)CCN(C)C + C#Cc1c(F)ccc2cc(O)cc(-c3ncc4c(N5CC6CCC(C5)N6)nc(OCC56CCCN5CC(F)C6)nc4c3F)c12 | NCI-H23 complex spheroids with HUVEC/MSC, viability | F
CC(C)n1nc(-c2ccc3oc(N)nc3c2)c2c(N)ncnc21 + C=CC(=O)N1CCN(c2nc(OCC3CCCN3C)nc3c(F)c(-c4nc(N)cc(C)c4C(F)(F)F)c(Cl)cc23)C(C)C1 | NCI-H23 complex spheroids with HUVEC/MSC, viability | T
CC1(O)CCCC1n1c(=O)c(C(F)F)cc2cnc(NC3CCN(S(C)(=O)=O)CC3)nc21 (stereo not given) + C=CC(=O)N1CCN(c2nc(OCC3CCCN3C)nc3c(F)c(-c4nc(N)cc(C)c4C(F)(F)F)c(Cl)cc23)C(C)C1 | NCI-H23 complex spheroids with HUVEC/MSC, viability | T
NC1c2ccccc2OC12CCN(c1cnc3c(N4CCCc5ncccc54)n[nH]c3n1)CC2 (stereo not given) + C=CC(=O)N1CCN(c2nc(OCC3CCCN3C)nc3c(F)c(-c4nc(N)cc(C)c4C(F)(F)F)c(Cl)cc23)C(C)C1 | NCI-H23 complex spheroids with HUVEC/MSC, viability | T
CCN1CCN(Cc2ccc(Nc3ncc(F)c(-c4cc(F)c5nc(C)n(C(C)C)c5c4)n3)nc2)CC1 + C#Cc1c(F)ccc2cc(O)cc(-c3ncc4c(N5CC6CCC(C5)N6)nc(OCC56CCCN5CC(F)C6)nc4c3F)c12 | NCI-H23 complex spheroids with HUVEC/MSC, viability | F
